Where do the numbers come from? From ChEMBL document CHEMBL3875228.

Experiment: Cmax in Sprague-Dawley rat at 10 mg/kg, po administered via gavage measured at 1 to 24 hrs post administration by HPLC-MS/MS analysis
Type: ADME, organism-based
Set-up: dose 10 mg/kg, route oral
Conditions: in vivo
Reported Cmax values are given for each entry in this list.
Assay endpoint: Cmax (ng/mL)

INSERT INTO measurements (smiles_str, quantitative_readout) VALUES
  ('CCC(=C(c1ccc(/C=C/C(=O)O)cc1)c1ccc(B(O)O)cc1)c1ccccc1', 3510),
  ('CC/C(=C(\c1ccccc1)c1ccc(/C=C/C(=O)O)cc1)c1ccc(O)cc1', 270);

====

Test: Tmax in Sprague-Dawley rat at 10 mg/kg, po administered via gavage measured at 1 to 24 hrs post administration by HPLC-MS/MS analysis
Assay type: ADME, organism-based
Conditions: in vivo
Assay endpoint: Tmax (h)

INSERT INTO assay_data (smiles_str, unit_of_measurement, quantitative_readout) VALUES
  ('CCC(=C(c1ccc(/C=C/C(=O)O)cc1)c1ccc(B(O)O)cc1)c1ccccc1', 'h', 1),
  ('CC/C(=C(\c1ccccc1)c1ccc(/C=C/C(=O)O)cc1)c1ccc(O)cc1', 'h', 3);

====

Target: Estrogen receptor (Homo sapiens, UniProt P03372)
Sequence (P03372 whole entry): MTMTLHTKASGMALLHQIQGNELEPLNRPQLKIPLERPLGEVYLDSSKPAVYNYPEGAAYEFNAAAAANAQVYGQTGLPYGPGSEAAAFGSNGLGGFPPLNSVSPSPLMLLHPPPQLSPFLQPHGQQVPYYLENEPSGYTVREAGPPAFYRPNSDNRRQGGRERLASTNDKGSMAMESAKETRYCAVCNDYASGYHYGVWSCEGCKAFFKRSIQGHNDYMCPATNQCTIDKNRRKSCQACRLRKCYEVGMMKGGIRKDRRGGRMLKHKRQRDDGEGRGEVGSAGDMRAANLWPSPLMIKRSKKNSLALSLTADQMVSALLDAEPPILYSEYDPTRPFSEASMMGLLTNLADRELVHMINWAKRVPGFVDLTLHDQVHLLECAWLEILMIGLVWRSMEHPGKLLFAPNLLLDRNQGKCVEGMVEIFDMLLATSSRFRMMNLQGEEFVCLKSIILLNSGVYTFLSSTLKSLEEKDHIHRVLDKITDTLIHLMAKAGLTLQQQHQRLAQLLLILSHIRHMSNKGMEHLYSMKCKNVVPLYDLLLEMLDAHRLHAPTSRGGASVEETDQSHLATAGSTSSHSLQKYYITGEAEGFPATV
Assay: biochemical
Description: Displacement of fluormone-labeled ES2 from recombinant full length human ERalpha ligand binding domain expressed in insect cells after 2 hrs by TR-FRET assay
Assay endpoint: IC50 (nM)

INSERT INTO assay_data (smiles_str, quantitative_readout) VALUES
  ('CCC(=C(c1ccc(/C=C/C(=O)O)cc1)c1ccc(B(O)O)cc1)c1ccccc1', 1.14);

====

Assay: Half life in Sprague-Dawley rat at 10 mg/kg, po administered via gavage measured at 1 to 24 hrs post administration by HPLC-MS/MS analysis
Assay type: ADME, organism-based
Settings: in vivo
Assay endpoint: half-life (h)

INSERT INTO measurements (smiles_str, assay_endpoint, quantitative_readout) VALUES
  ('CCC(=C(c1ccc(/C=C/C(=O)O)cc1)c1ccc(B(O)O)cc1)c1ccccc1', 'half-life', 3.9),
  ('CC/C(=C(\c1ccccc1)c1ccc(/C=C/C(=O)O)cc1)c1ccc(O)cc1', 'half-life', 7);

====

Experiment: cells
Conditions: Homo sapiens, MCF7, 120 h
Description: Cytotoxicity against tamoxifen-resistant human MCF7 cells assessed as reduction in cell viability after 5 days by Coulter counting method
Recorded IC50 values for a group of compounds are listed next.
Assay endpoint: IC50 (nM)

INSERT INTO measurements (smiles_str, quantitative_readout) VALUES
  ('CC/C(=C(\c1ccccc1)c1ccc(/C=C/C(=O)O)cc1)c1ccc(O)cc1', 1000),
  ('CCC(=C(c1ccc(/C=C/C(=O)O)cc1)c1ccc(B(O)O)cc1)c1ccccc1', 1200),
  ('CC/C(=C(\c1ccc(O)cc1)c1ccc(OCCN(C)C)cc1)c1ccccc1', 20000);
